test-system: GABA-A receptor; anion channel (Bos taurus) (UniProt P10063+P08220+P20237+P08219+P10064+P22300)
protocol-summary: Percentage inhibition of [3H]Ro-151788 binding to GABA-A benzodiazepine receptor in bovine brain membrane at 10 uM
Assay type: cell membranes
# inhibition per entry
Could you give me the number in %? Just the number is fine.

O=C(N/C=N/O)c1cnn2c1n[n+]([O-])c1ccc(Cl)cc12: 0

Need inhibition of Nc1cnn2c1n[n+]([O-])c1ccc(Cl)cc12 , thanks.
33.9

O=CNC(=O)c1cnn2c1n[n+]([O-])c1ccc(Cl)cc12 ?
85.5

[O-][n+]1nc2c(-c3nc[nH]n3)cnn2c2cc(Cl)ccc21 ?
44.4

Cn1cnc(-c2cnn3c2n[n+]([O-])c2ccc(Cl)cc23)n1 ?
0

CC(C)(C)OC(=O)Nc1cnn2c1n[n+]([O-])c1ccc(Cl)cc12 ?
0

CCOC(=O)c1cnn2c1n[n+]([O-])c1ccc(Cl)cc12 ?
99.8

Cc1nc(-c2cnn3c2n[n+]([O-])c2ccc(Cl)cc23)nn1C ?
0

Just for reference, ChEMBL document CHEMBL1132244 is where these values come from.
